Test system: HT-29
protocol-details: Cytotoxicity against human HT-29 cells assessed as cell viability at 1.563 to 50 uM measured after 72 hrs by plate reader method
Format: functional, cell-based
assay-context: HT-29, 72 h
Answer each item with its documented IC50.
Give bare numbers, in µM.

// below: answered compounds
{"columns": ["chemical-structure", "IC50 / µM"],
 "data": [
  ["CC(C)[C@H]1CC[C@@]2(C)C[C@@H]1c1c(cc(/C=C/c3ccccc3)oc1=O)O2", 8.2],
  ["CC(C)[C@@H]1CC[C@@]2(C)C[C@@H]1c1c(cc(/C=C/c3ccccc3)oc1=O)O2", 32.4]
]}

Next compound, please.
Recall the recorded IC50 for `O=C1[C@H](Cc2ccc(O)cc2)N2C(=O)CCN(C(=O)NCc3ccccc3)[C@H]2CN1Cc1cccc2ccccc12` with HT-29 and state it.
10.8
